Experiment: Dissolution test against cold water at 10° C.
Format: physicochemical
Conditions: 20 ml water 10° C., about 300 rpm; 0.5 g trehalose or 0.2 g maltose
Protocol: A dissolution test against cold water at 10° C. was carried out using the porous anhydrous crystalline trehalose prepared by treating at 70° C. for 60 min in Example 1, the porous anhydrous crystalline maltose prepared by the method in Example 3, and the porous hydrous crystalline maltose prepared by the method in Example 5, as samples. The results were compared with those of the controls, anhydrous crystalline trehalose, hydrous crystalline trehalose, and hydrous crystalline maltose. […]
measureName: Time required for dissolution, No. 4
Please make sure the unit comes right after the number.

Q: Output measured Time required for dissolution, No. 4 for this item: OC[C@H]1O[C@H](O[C@H]2O[C@H](CO)[C@@H](O)[C@H](O)[C@H]2O)[C@H](O)[C@@H](O)[C@@H]1O [Anhydrous crystalline trehalose (Control)] [α-D-glucosyl α-D-glucoside, reference compound]
Result: 91 s

Q: Output measured Time required for dissolution, No. 4 for this item: OC[C@H]1O[C@H](O[C@H]2O[C@H](CO)[C@@H](O)[C@H](O)[C@H]2O)[C@H](O)[C@@H](O)[C@@H]1O [Hydrous crystalline trehalose (Control), α-D-glucosyl α-D-glucoside]
Result: 135 s

Q: Output measured Time required for dissolution, No. 4 for this item: OC[C@H]1O[C@H](O[C@H]2[C@H](O)[C@@H](O)C(O)O[C@@H]2CO)[C@H](O)[C@@H](O)[C@@H]1O (mixture of isomers) [Anhydrous crystalline α-maltose (Control)] [reference compound]
Result: 38 s

Q: Output measured Time required for dissolution, No. 4 for this item: OC[C@H]1O[C@H](O[C@H]2[C@H](O)[C@@H](O)C(O)O[C@@H]2CO)[C@H](O)[C@@H](O)[C@@H]1O (mixture of isomers) [Hydrous crystalline β-maltose (Control), maltose]
Result: 119 s

====

test: Specific surface area by nitrogen adsorption isotherms (BET); format: physicochemical; details: nitrogen adsorption isotherms, BET
measureName: Specific surface area (m^2/g)
Just the number please, in m^2/g, no unit attached.

Q: Output measured Specific surface area for this item: OC[C@H]1O[C@H](O[C@H]2[C@H](O)[C@@H](O)C(O)O[C@@H]2CO)[C@H](O)[C@@H](O)[C@@H]1O (mixture of isomers) [Anhydrous crystalline α-maltose (Control)] [reference compound]
Result: 0.48

Q: Output measured Specific surface area for this item: OC[C@H]1O[C@H](O[C@H]2[C@H](O)[C@@H](O)C(O)O[C@@H]2CO)[C@H](O)[C@@H](O)[C@@H]1O (mixture of isomers) [Anhydrous crystalline β-maltose (Control)] [reference compound]
Result: 0.82

Q: Output measured Specific surface area for this item: OC[C@H]1O[C@H](O[C@H]2[C@H](O)[C@@H](O)C(O)O[C@@H]2CO)[C@H](O)[C@@H](O)[C@@H]1O (mixture of isomers) [Porous hydrous crystalline maltose, maltose]
Result: 1.39

Q: Output measured Specific surface area for this item: OC[C@H]1O[C@H](O[C@H]2[C@H](O)[C@@H](O)C(O)O[C@@H]2CO)[C@H](O)[C@@H](O)[C@@H]1O (mixture of isomers) [Porous anhydrous crystalline maltose, maltose]
Result: 3.39

====

assay: Pore size distribution by the mercury filling method; format: physicochemical
measureName: Intrusion volume (mL/g)
Just the number please, in mL/g, no unit attached.

Q: Output measured Intrusion volume for this item: OC[C@H]1O[C@H](O[C@H]2O[C@H](CO)[C@@H](O)[C@H](O)[C@H]2O)[C@H](O)[C@@H](O)[C@@H]1O [Porous anhydrous crystalline trehalose (treated at 50° C. fo] [α-D-glucosyl α-D-glucoside]
Result: 0.22

Q: Output measured Intrusion volume for this item: OC[C@H]1O[C@H](O[C@H]2[C@H](O)[C@@H](O)C(O)O[C@@H]2CO)[C@H](O)[C@@H](O)[C@@H]1O (mixture of isomers) [Porous anhydrous crystalline maltose, maltose]
Result: 1.05

Q: Output measured Intrusion volume for this item: OC[C@H]1O[C@H](O[C@H]2[C@H](O)[C@@H](O)C(O)O[C@@H]2CO)[C@H](O)[C@@H](O)[C@@H]1O (mixture of isomers) [Porous hydrous crystalline maltose, maltose]
Result: 0.77

Q: Output measured Intrusion volume for this item: OC[C@H]1O[C@H](O[C@H]2O[C@H](CO)[C@@H](O)[C@H](O)[C@H]2O)[C@H](O)[C@@H](O)[C@@H]1O [Porous anhydrous crystalline trehalose (treated at 70° C. fo] [α-D-glucosyl α-D-glucoside]
Result: 0.28
